- tgt: T1, human CTLA-4 (amino acids M1-N223) on stably transfected VI-fibroblast cells (human, UniProt P16410 36-223)
- T1 construct: also called VI-fibroblast/hCTLA-4
- run-description: ECL cell binding, VI-fibroblast/hCTLA-4 cells;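 also: antibodies bound to the cells on carbon electrode plates, detected via SULFO-TAG anti-IgG secondary (1 h, RT), electrochemiluminescence read as RLU over a concentration range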
reported-endpoint: ratio of RLU signal to parental VI-fibroblast at 0.4 nM Ab (ratio)

1. H1H19281P (antibody, human IgG1, V domains shown) VH: QVQLVESGGGVVQPGRSLRLSCAASGLTFSYYGMHWVRQAPGKGLEWVAVISYDGSNKYYADSVKGRFTISRDNSKNTLYLQMNSLRAEDAAVYYCAKDLGGDDYYGMDVWGQGTTVTVSS VL: EIVLTQSPGTLSLSPGERATLSCRASQSVSRTYLAWYQQKPGQAPRLLIYGAFSRATGIPDRFSGSGSGTDFTLTISRLEPEDFAVYYCQQYGSSPYTFGQGTKLEIK: 23
2. H1H19273P (antibody, human IgG1, V domains shown) VH: QITLKESGPTLVKPTQTLTLTCTFSGFSLSTSGVGVGWIRQSPGRALEWLALIYWNDHERYSPSLKSRLTITKDTSKNLVVLAMANMDPVDTATYFCAHRNIEYRRSYFFDYWGQGTLVTVSS VL: DIQMTQSPSSVSASVRDRVTVTCRASQDINNWLAWYQQKPGKAPKLLIYAASSLQSGVPSRFSGSGSGTDFTLTISSLQPEDFATYYCQQANTFPFTFGPGTKVDIK: 11
3. H1H19312P (antibody, human IgG1, V domains shown) VH: QVQLQESGPGLVKPSETLSLTCTVSGGSISSYHWSWIRQPLGKGLEWIGYIYYSGSTNYNPSLKSRVTISVDTSKNQFSLKLSSVTAADTAVYYCARGGSSIWPFDYWGQGTLVTVSS VL: DIQMTQSPSTLSASVGDRVTITCRASQSISSWLAWYQQKSGKAPKLLISKASTLESGVPSRFSGSGSGTEFTLTISSLQPDDFATYYCQQYNIYSWTFGQGTKVEIK: 14
